Tested on: REH
Test: Growth inhibition of human REH cells after 72 hrs by CellTiter-Glo reagent based assay
Format: functional, cell-based
Conditions: reh
propertyLabel: EC50

Asked: Form entry - test system: REH; read-out: EC50; compound: `CC1=C(CC(=O)N2CCN(c3ccncc3)CC2)c2cc(F)ccc2/C1=C\c1nc2ccccc2s1`
Given back: Not Active

Asked: What reported EC50 corresponds to `CSc1ccc(/C=C2/C(C)=C(CC(=O)N3CCCN(C)CC3)c3cc(F)ccc32)cc1` on REH?
Given back: Not Active

Asked: Please state recorded EC50 (tested on REH) of `CSc1ccc(/C=C2/C(C)=C(CC(=O)N(C)CCN(C)C)c3cc(F)ccc32)cc1`
Given back: Not Active

----------
Test system: MDA-MB-231
Assay: Growth inhibition of human MDA-MB-231 cells after 72 hrs by CellTiter-Glo reagent based assay
Assay type: functional
Details: MDA-MB-231, 72 h
propertyLabel: CC50 (µM)
Express it in µM; write the number only.

Asked: May I ask what CC50 has been recorded for `CCN(CC)CCN(C)C(=O)CC1=C(C)/C(=C/c2ccc(SC)cc2)c2ccc(F)cc21` ?
Given back: 3.77

Asked: What value of CC50 has been reported for the following compound? `CNCCN(C)C(=O)CC1=C(C)/C(=C/c2cc(OC)c(OC)c(OC)c2)c2ccc(F)cc21`
Given back: 17

Asked: Quick one: CC50 of CC1=C(CC(=O)NCCC(C)C)c2cc(F)ccc2/C1=C\c1ccc([S+](C)[O-])cc1 (stereo unspecified) ?
Given back: 27.7

Asked: Give the measured CC50 of `CC1=C(CC(=O)NCc2ccccc2)c2cc(F)ccc2/C1=C\c1nc2ccccc2s1` .
Given back: 19.6

Lab note: next compound to report on.
Asked: Quick check: CC50 of `CC1=C(CC(=O)N2CCN(c3ccncc3)CC2)c2cc(F)ccc2/C1=C\c1nc2ccccc2s1` ?
Given back: 7.71

----------
Tested on: MDA-MB-231
Experiment: Growth inhibition of human MDA-MB-231 cells after 72 hrs by CellTiter-Glo reagent based assay
Type: functional
Details: MDA-MB-231, 72 h
Reported CC50 values for the following molecules.
Field: numeric (µM). Do not append units.

Asked: Sample `CSc1ccc(/C=C2/C(C)=C(CC(=O)Nc3ccc(N(C)C)cc3)c3cc(F)ccc32)cc1` — what was its CC50?
Given back: 30.6

Asked: Entry CC1=C(CC(=O)N2CCN(CCCN(C)C)CC2)c2cc(F)ccc2/C1=C\c1ccc([S+](C)[O-])cc1 (stereo not drawn) : reported CC50 = ?
Given back: 46.2

Asked: Name the recorded CC50 for `CCN1CCC[C@H]1CNC(=O)CC1=C(C)/C(=C/c2nc3ccccc3s2)c2ccc(F)cc21` .
Given back: 5.58

Asked: What value of CC50 has been reported for the following molecule? CC1=C(CC(=O)NCc2ccccc2)c2cc(F)ccc2/C1=C\c1ccc([S+](C)[O-])cc1 (stereo not drawn)
Given back: 0.78

Asked: // CC50 lookup, key: `CCN(CC)CCNC(=O)CC1=C(C)/C(=C/c2ccc(SC)cc2)c2ccc(F)cc21`
Given back: 4.2

Next:
Asked: Given CC1=C(CC(=O)N(C)CCN(C)S(=O)(=O)c2cccc3ccccc23)c2cc(F)ccc2/C1=C\c1ccc([S+](C)[O-])cc1 (stereo not drawn) , state its recorded CC50.
Given back: 29.1

----------
System: MDA-MB-231
Assay: Growth inhibition of human MDA-MB-231 cells after 72 hrs by CellTiter-Glo reagent based assay
Format: functional
Details: MDA-MB-231, 72 h
Each entry below lists one item and its recorded log10(CC50) value.
// units: µM (pre-log); metric: CC50; scale: log10

Below, each entry is followed by its recorded log10(CC50) result.
Asked: # query: log10(CC50) of entry `CC1=C(CC(=O)NCCN(C)C)c2cc(F)ccc2/C1=C\c1nc2ccccc2s1`
Given back: 0.56

Asked: Which log10(CC50) value is on record for `CSc1ccc(/C=C2/C(C)=C(CC(=O)N3CCC[C@H]3CN3CCCC3)c3cc(F)ccc32)cc1` ?
Given back: 0.62

Asked: What value of log10(CC50) has been recorded for this entry: `CC1=C(CC(=O)NCCCN(C)C)c2cc(F)ccc2/C1=C\c1nc2ccccc2s1`
Given back: 0.29

Asked: # get_value(readout='log10(CC50)', item= `CSc1ccc(/C=C2/C(C)=C(CC(=O)N(C)CCN(C)C(=O)[C@@H](N)C(C)C)c3cc(F)ccc32)cc1` )
Given back: 0.87

Asked: So what's the measured log10(CC50) for this one? `CC1=C(CC(=O)NCCC(C)C)c2cc(F)ccc2/C1=C\c1nc2ccccc2s1`
Given back: 1.38

Asked: For the compound shown here, `CNCCCN(C)C(=O)CC1=C(C)/C(=C/c2ccc(SC)cc2)c2ccc(F)cc21` , give the reported log10(CC50).
Given back: 0.88

Asked: Find the recorded log10(CC50) belonging to CSc1ccc(/C=C2/C(C)=C(CC(=O)NCCC3CCCN3C)c3cc(F)ccc32)cc1 (stereo not drawn) and report it.
Given back: 0.57

Asked: log10(CC50) for `CC1=C(CC(=O)NCCN(C)C)c2cc(F)ccc2/C1=C\c1ccncc1` ?
Given back: 1.26

Others:
Asked: I am curious: what log10(CC50) value has been reported for `CSc1ccc(/C=C2/C(C)=C(CC(=O)N(C)CCN(C)S(C)(=O)=O)c3cc(F)ccc32)cc1` ?
Given back: 1.06

Asked: Report log10(CC50) for `CSc1ccc(/C=C2/C(C)=C(CC(=O)N3CCNCC3)c3cc(F)ccc32)cc1` please.
Given back: 0.57

Asked: Which log10(CC50) value is on record for `CCN(CCN(C)C)C(=O)CC1=C(C)/C(=C/c2ccc(SC)cc2)c2ccc(F)cc21` ?
Given back: 0.60

Asked: // lookup log10(CC50) for CC1=C(CC(=O)NCc2ccccc2)c2cc(F)ccc2/C1=C\c1ccncc1 [CP-461 FREE BASE]
Given back: 0.57

Asked: Any idea what its log10(CC50) is? The compound is `CSc1ccc(/C=C2/C(C)=C(CC(=O)NCCCN(C)C)c3cc(F)ccc32)cc1`
Given back: 0.71

Asked: Please give the measured log10(CC50) for this compound: CC1=C(CC(=O)N(C)CCN(C)S(=O)(=O)c2ccc(C)cc2)c2cc(F)ccc2/C1=C\c1ccc([S+](C)[O-])cc1 (stereo not drawn)
Given back: 1.25

Asked: Any idea what log10(CC50) was measured for CC1=C(CC(=O)N(C)CCN(C)S(=O)(=O)c2ccccc2)c2cc(F)ccc2/C1=C\c1ccc([S+](C)[O-])cc1 (stereo not drawn) ?
Given back: 1.09

----------
Consider the following compounds and their measured CC50 readings.
Tested on: MDA-MB-231
Assay: Growth inhibition of human MDA-MB-231 cells after 72 hrs by CellTiter-Glo reagent based assay
Assay type: functional
Settings: MDA-MB-231, 72 h
Numbers only here, please. The scale is µM.

Use these answered entries as a reference point.
Asked: Can you look up the measured CC50 of `CSc1ccc(/C=C2/C(C)=C(CC(=O)NCCN3CCCC3)c3cc(F)ccc32)cc1` for me?
Given back: 3.78

Asked: Please report the recorded CC50 for `COc1cc(/C=C2/C(C)=C(CC(=O)NCCCN(C)C)c3cc(F)ccc32)cc(OC)c1OC` .
Given back: 10.8

Asked: Given the compound CC1=C(CC(=O)NCc2ccco2)c2cc(F)ccc2/C1=C\c1ccc([S+](C)[O-])cc1 (stereo not given) , what is its reported CC50?
Given back: 2.73

Others:
Asked: Any idea what its CC50 is? The compound is `CC1=C(CC(=O)N2CCN(CCCN(C)C)CC2)c2cc(F)ccc2/C1=C\c1nc2ccccc2s1`
Given back: 2.9

Asked: What value of CC50 has been recorded for this entry: `COC(=O)[C@H](C)NC(=O)CC1=C(C)/C(=C/c2ccc(SC)cc2)c2ccc(F)cc21`
Given back: 38.9

Asked: Param item = `CCN(CC)CCNC(=O)CC1=C(C)/C(=C/c2cc(OC)c(OC)c(OC)c2)c2ccc(F)cc21` ; retrieve measured CC50.
Given back: 12.3

Asked: Need CC50, item `CSc1ccc(/C=C2/C(C)=C(CC(=O)N3CCN(CCCN(C)C)CC3)c3cc(F)ccc32)cc1`
Given back: 3.77

Asked: Given `COc1cc(/C=C2/C(C)=C(CC(=O)N3CCC[C@H]3CN3CCCC3)c3cc(F)ccc32)cc(OC)c1OC` , state its recorded CC50.
Given back: 11.1

Asked: Requested read-out: CC50. Entry: `CSc1ccc(/C=C2/C(C)=C(CC(=O)NN3CCN(C)CC3)c3cc(F)ccc32)cc1`
Given back: 4.1

Asked: What value of CC50 has been recorded for this entry: `CCN(CC)CCNC(=O)CC1=C(C)/C(=C/c2nc3ccccc3s2)c2ccc(F)cc21`
Given back: 3.54
